- subject of test: T1, human ferroportin (SLC40A1) fused in frame with GFP, stably expressed in HEK293 cells (human, UniProt Q9NP59 1-571)
- T1 sequence (looked up): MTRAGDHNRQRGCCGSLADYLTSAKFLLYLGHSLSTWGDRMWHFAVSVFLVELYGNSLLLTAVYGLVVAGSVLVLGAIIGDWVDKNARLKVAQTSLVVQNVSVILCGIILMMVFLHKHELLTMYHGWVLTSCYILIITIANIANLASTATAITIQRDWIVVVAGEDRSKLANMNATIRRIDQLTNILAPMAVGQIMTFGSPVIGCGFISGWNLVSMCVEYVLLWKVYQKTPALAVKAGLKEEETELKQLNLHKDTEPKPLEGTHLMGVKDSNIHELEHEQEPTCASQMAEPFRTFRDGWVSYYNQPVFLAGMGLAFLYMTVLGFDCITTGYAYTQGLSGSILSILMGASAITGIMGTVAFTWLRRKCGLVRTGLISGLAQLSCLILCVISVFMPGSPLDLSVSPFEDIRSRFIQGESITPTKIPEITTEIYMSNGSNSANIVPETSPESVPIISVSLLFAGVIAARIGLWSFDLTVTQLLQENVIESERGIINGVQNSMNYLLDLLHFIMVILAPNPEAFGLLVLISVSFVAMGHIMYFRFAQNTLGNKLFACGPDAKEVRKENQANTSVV
- assay notes: cell-based or functional assay
Ends that are not written are not given here. * marks the point of attachment. Isovaleryl = CC(C)CC(=O)*
Quick rule for you: Log dilutions EC50 (nM) (n > 3) under 8 nM gets criterion met, anything else gets criterion not met.

# check: Log dilutions EC50 (nM) (n > 3) < 8 nM for Isovaleryl-DTHFPCIKF-NH2 (also: homodimer with IDA-(β-Ala)-Palm linking moiety, attachment site not given here) [Compound 349]
criterion met

# check: Log dilutions EC50 (nM) (n > 3) < 8 nM for H-DTHFPCIKF-NH2 (also: homodimer with IDA-(β-Ala) linking moiety, attachment site not given here) [Compound 348]
criterion not met

# check: Log dilutions EC50 (nM) (n > 3) < 8 nM for Isovaleryl-DTHFPCIKF-NH2 (also: homodimer via disulfide between Cys6 of each monomer) [Compound 326]
criterion met

# check: Log dilutions EC50 (nM) (n > 3) < 8 nM for DTHFPCIKF-NH2 (not fully specified; printed as [PEG25]-(DTHFPCIKF-NH2)2) [Compound 351]
criterion not met

# check: Log dilutions EC50 (nM) (n > 3) < 8 nM for Isovaleryl-DTHFPCIKFK-NH2 (also: homodimer linked by DIG linker through Lys10 of each monomer) [Compound 346]
criterion not met
